measurement.target: human MAdCAM-1 (huMAdCAM-1-Ig chimera); RPMI 8866 cells expressing α4β7 (Homo sapiens, UniProt P13612+P26010)
Construct: RPMI 8866 cells, a B cell lymphoma expressing α4β7; endogenous in cells; host or cells: RPMI 8866 cells (endogenous α4β7)
experiment.notes: huMAdCAM-1-Ig/RPMI 8866 Adhesion Assay
Type: cell-based
recorded.conditions: read-out: hMAdCAM IC50, Table 7, R1-Leu-Asp-Thr-R2
measured.attribute: pIC50
In plain terms, pIC50 is the concentration in mol/L turned into minus its base-10 logarithm.

-- ask Endpoint output: pIC50 of CC(C)C[C@H](NC(=O)c1cc2ccccc2cn1)C(=O)N[C@@H](CC(=O)O)C(=O)N[C@H](C(=O)N1CCC(=O)CC1)[C@@H](C)O . Value?
-- reply 6.03

====

measurement.target: murine MAdCAM-1 (MAdCAM-1/mCk fusion protein); α4β7-bearing HUT 78 cells (Homo sapiens, UniProt P13612+P26010)
Construct: host or cells: HUT 78 cells (endogenous α4β7); The MAdCAM-1/mCk partner was made in house in baculovirus-infected Sf9 insect cells, used as neat supernatant and captured by rat anti-mCk antibody
Sequence (P13612 34-1032): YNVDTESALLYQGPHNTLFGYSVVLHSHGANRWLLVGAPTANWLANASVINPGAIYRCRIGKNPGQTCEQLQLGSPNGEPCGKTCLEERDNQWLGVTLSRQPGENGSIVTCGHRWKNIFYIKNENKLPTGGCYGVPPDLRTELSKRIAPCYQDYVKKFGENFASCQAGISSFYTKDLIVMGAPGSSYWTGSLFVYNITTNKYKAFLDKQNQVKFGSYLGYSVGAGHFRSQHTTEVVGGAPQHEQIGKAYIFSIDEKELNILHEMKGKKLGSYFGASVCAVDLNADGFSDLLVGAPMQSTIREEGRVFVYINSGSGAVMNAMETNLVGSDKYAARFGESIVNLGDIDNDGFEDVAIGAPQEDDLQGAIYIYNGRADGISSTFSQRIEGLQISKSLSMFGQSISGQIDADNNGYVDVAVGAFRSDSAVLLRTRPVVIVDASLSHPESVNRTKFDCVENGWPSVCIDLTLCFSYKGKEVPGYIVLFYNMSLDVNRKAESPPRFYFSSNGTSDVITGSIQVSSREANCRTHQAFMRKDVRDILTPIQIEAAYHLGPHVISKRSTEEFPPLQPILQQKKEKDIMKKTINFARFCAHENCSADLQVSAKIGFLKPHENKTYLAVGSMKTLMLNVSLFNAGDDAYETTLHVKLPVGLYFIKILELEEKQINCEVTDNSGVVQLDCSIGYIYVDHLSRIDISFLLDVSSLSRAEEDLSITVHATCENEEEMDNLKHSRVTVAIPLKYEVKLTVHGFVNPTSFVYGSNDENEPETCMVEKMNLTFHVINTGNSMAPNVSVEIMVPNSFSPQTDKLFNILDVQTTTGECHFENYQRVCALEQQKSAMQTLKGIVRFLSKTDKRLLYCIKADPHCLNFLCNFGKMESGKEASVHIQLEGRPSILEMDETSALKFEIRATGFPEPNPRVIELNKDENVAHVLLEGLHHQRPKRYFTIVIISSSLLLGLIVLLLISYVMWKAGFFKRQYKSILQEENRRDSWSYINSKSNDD
Sequence (P26010 20-798): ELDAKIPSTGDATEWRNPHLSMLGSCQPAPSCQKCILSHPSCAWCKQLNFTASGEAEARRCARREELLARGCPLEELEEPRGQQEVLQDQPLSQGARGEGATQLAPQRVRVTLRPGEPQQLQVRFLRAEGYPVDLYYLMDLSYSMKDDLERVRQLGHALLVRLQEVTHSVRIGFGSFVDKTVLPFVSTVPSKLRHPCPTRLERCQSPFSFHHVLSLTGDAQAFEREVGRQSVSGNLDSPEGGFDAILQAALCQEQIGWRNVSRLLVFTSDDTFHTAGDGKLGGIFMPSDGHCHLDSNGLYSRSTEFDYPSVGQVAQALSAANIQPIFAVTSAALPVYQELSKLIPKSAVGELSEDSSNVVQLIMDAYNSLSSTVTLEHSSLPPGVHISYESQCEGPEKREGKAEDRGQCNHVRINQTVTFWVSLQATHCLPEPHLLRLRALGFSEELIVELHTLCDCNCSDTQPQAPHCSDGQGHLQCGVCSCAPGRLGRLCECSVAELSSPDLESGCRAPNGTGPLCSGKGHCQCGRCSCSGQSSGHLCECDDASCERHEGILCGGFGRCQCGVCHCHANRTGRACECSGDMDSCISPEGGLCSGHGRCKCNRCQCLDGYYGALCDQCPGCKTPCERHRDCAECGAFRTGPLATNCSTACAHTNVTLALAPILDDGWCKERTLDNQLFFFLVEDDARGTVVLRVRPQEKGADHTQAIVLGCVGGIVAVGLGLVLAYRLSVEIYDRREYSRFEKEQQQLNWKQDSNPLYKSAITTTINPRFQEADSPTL
experiment.notes: Adhesion of HUT 78 cells to MAdCAM-1/mCk fusion protein bound via capture antibody
Format: cell-based
recorded.conditions: HUT 78 cell adhesion to MAdCAM-1/mCk; average of two determinations; read-out: IC50
Form field: IC50 (one value per entry).
Return type: number; implicit unit µM.

CC(C)C[C@H](NC(=O)[C@H](CO)NC(=O)[C@@H](NC(=O)[C@H](CC(=O)O)NC(=O)[C@H](CC(C)C)NC(=O)c1cc(-c2ccccc2)cc(-c2ccccc2)c1)[C@@H](C)O)C(N)=O 15

Then there is this compound:
-- ask Endpoint output: IC50 of CC(=O)N(C)[C@@H](CC(C)C)C(=O)N[C@@H](CC(=O)O)C(=O)N[C@H](C(=O)N[C@@H](CO)C(=O)N[C@@H](CC(C)C)C(N)=O)[C@@H](C)O . Value?
-- reply 150

====

Form field: log10(IC50) (one value per entry).
measurement.target: murine MAdCAM-1 (MAdCAM-1/mCk fusion protein); α4β7-bearing HUT 78 cells (Homo sapiens, UniProt P13612+P26010)
Construct: host or cells: HUT 78 cells (endogenous α4β7); The MAdCAM-1/mCk partner was made in house in baculovirus-infected Sf9 insect cells, used as neat supernatant and captured by rat anti-mCk antibody
experiment.notes: Adhesion of HUT 78 cells to MAdCAM-1/mCk fusion protein bound via capture antibody
Assay type: cell-based
recorded.conditions: IC50 (μM), HUT 78 cell adhesion to MAdCAM-1/mCk; average of two determinations
Peptide text beside a SMILES is read from it. * marks the point of attachment. Butanoyl(4-pyren-1-yl) = O=C(CCCc1ccc2ccc3cccc4ccc1c2c34)*
Note the log scale: values are log10 of IC50 expressed in µM.

compound	log10(IC50)
CC(C)C[C@H](NC(=O)[C@H](CO)NC(=O)[C@@H](NC(=O)[C@H](CC(=O)O)NC(=O)[C@H](CC(C)C)NC(=O)c1ccc2ccc3cccc4ccc1c2c34)[C@@H](C)O)C(N)=O	0.32
CC(C)C[C@H](NC(=O)[C@H](CO)NC(=O)[C@@H](NC(=O)[C@H](CC(=O)O)NC(=O)[C@H](CC(C)C)NC(=O)Cc1ccccc1)[C@@H](C)O)C(N)=O	3.33
CC(C)C[C@H](NC(=O)[C@H](CO)NC(=O)[C@@H](NC(=O)[C@H](Cc1ccc(O)cc1)NC(=O)[C@H](CC(C)C)NC(=O)CCCc1ccc2ccc3cccc4ccc1c2c34)[C@@H](C)O)C(N)=O [Example 42, Pba-Leu-Tyr-Thr-Ser-Leu] ({Butanoyl(4-pyren-1-yl)}-LYTSL-NH2)	1.48
CC(C)C[C@H](NC(=O)[C@H](CO)NC(=O)[C@@H](NC(=O)[C@H](CC(=O)O)NC(=O)[C@H](CC(C)C)NC(=O)[C@@H]1CCCN1C(=O)CCCc1ccc2ccc3cccc4ccc1c2c34)[C@@H](C)O)C(N)=O [Example 30, Pba-Pro-Leu-Asp-Thr-Ser-Leu] ({Butanoyl(4-pyren-1-yl)}-PLDTSL-NH2)	1.67
C[C@@H](O)[C@H](NC(=O)[C@H](CC(=O)O)NC(=O)CCCc1ccc2ccc3cccc4ccc1c2c34)C(N)=O	1.13
CC(C)C[C@H](NC(=O)[C@H](CO)NC(=O)[C@@H](NC(=O)[C@H](C)NC(=O)[C@H](CC(C)C)NC(=O)CCCc1ccc2ccc3cccc4ccc1c2c34)[C@@H](C)O)C(N)=O [Example 39, Pba-Leu-Ala-Thr-Ser-Leu] ({Butanoyl(4-pyren-1-yl)}-LATSL-NH2)	1.45

-- ask Endpoint output: log10(IC50) of CC(C)C[C@H](NC(=O)[C@H](CO)NC(=O)[C@@H](NC(=O)[C@H](CC(=O)O)NC(=O)[C@H](CC(C)C)NC(=O)CCCc1ccc2ccc3cccc4ccc1c2c34)[C@@H](C)O)C(N)=O [Example 23, Pba-Leu-Asp-Thr-Ser-Leu] . Value?
-- reply 0.45

-- ask What do we get for CC(C)C[C@H](NC(=O)[C@H](CO)NC(=O)[C@@H](NC(=O)[C@H](CC(=O)O)NC(=O)[C@H](CC(C)C)NC(=O)CCCc1ccc2ccc3cccc4ccc1c2c34)[C@@H](C)O)C(N)=O [Example 36, Pba-Leu-Asp-Thr-Ser-Leu] ?
-- reply 0.60

-- ask What do we get for CC(C)C[C@H](NC(=O)[C@H](CO)NC(=O)[C@@H](NC(=O)[C@H](CC(=O)O)NC(=O)CCCc1ccc2ccc3cccc4ccc1c2c34)[C@@H](C)O)C(N)=O [Example 51, Pba-Asp-Thr-Ser-Leu] ({Butanoyl(4-pyren-1-yl)}-DTSL-NH2) ?
-- reply 1.12

-- ask What do we get for CC(C)C[C@H](NC(=O)[C@H](CO)NC(=O)[C@@H](NC(=O)[C@H](CC(=O)O)NC(=O)[C@H](CC(C)C)NC(=O)Cc1ccc2ccc3cccc4ccc1c2c34)[C@@H](C)O)C(N)=O ?
-- reply -0.30
